assay: inhibition of 3D7 malaria parasite growth – strain 3D7 (AID 2306);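 further: 0% = DMSO wells and 100% = chloroquine plus artemisinin control wells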; conditions: P. falciparum 3D7 erythrocytic growth, LDH absorbance, 72 h; at 2 µM; stronger effect = higher value
Measured Quantity: growth inhibition (%)

• N#Cc1ccc2c(c1)CN(C1CCC(NC(=O)C3=Cc4cc(Cl)ccc4OC3)CC1)CCC2 (stereo unspecified) = 93
• Cc1cc(NN=Cc2cccc(Cl)c2)c2cc(F)ccc2n1 = 101
• O=C(Nc1cc(Cl)cc(Cl)c1)c1cc(Cl)c(=O)n(Cc2ccc(Cl)cc2)c1 = 89
• CN1CCN(CCCN(Cc2csc(-c3ccc(CNCc4ccccc4)cc3)n2)C(=O)Nc2ccc3ccccc3c2)CC1 = 94
• CCc1cc(N2CCN(c3ccccc3F)CC2)nc(SCc2ccc(C(=O)NC3CC3)o2)n1 = 90
• Clc1cccc(Cl)c1CCNCC1CCN(CC2CCCCC2)CC1 = 98
• Cc1cc(N(CCCN(C)C)Cc2cc(F)cc(F)c2)nc(Nc2ccc(Cl)cc2)n1 = 99
• CC1(C)CCCC(=Cc2ccc(Br)cc2)C1(O)Cn1ccnc1 (stereo unspecified) = 99
• O=C(c1ccc(Cl)cc1)C1CCN(CCCOc2ccc3c(c2)CCNCC3)CC1 = 93
• Fc1ccc(Nc2ccnc3cc(-c4ccc(CNCCN5CCOCC5)o4)ccc23)c(Cl)c1 = 100
• CCN(CCCN1CCCCC1)c1cc(C)nc(Nc2ccc(C)cc2)n1 = 101
• COc1cccc(CNC(=O)[C@H]2CNCCN2C(=O)CCCc2ccccc2)c1 = 91
• O=C(NC1CCN(Cc2ccccc2)CC1)c1ccc2c(=O)n(Cc3ccc(Cl)cc3)c(=S)[nH]c2c1 = 101
• Cc1cc2c(cc1C(F)(F)F)N(C(=O)Nc1cc(C(=O)NC3CCN(Cc4ccccc4)C3)cc(C(F)(F)F)c1)CC2 (stereo unspecified) = 101
• O=C(Nc1cccc(CN2CCCN(Cc3cccc(O)c3)CC2)c1)c1ccc2ccccc2c1 = 97
• COc1ccc(-c2cccc(NC(=O)c3cccc(Cl)c3)c2)cc1CN(C)CCN(C)C = 101
• COCCNCc1cccc(-c2cc3nccc(Nc4ccc(Oc5ccccc5)cc4)c3cc2Cl)c1 = 99
• COc1cc(C(=O)NC2CC(C)(C)N(C)C(C)(C)C2)ccc1-c1cc2cc(Cl)c(Cl)cc2[nH]1 = 89
• COc1cc(CCCON2C(N)=NC(N)=NC2(C)C)cc(OC)c1OC = 98
• COc1ccc2nccc([C@@H](O)CN3CCC(NC(=O)C(c4cc5ccccc5o4)N4CCN(Cc5ccccc5)CC4)CC3)c2c1 (stereo partly specified) = 91
• Cc1cc(CN2CC[C@H](NC(=O)c3ccc(Cl)c(Cl)c3)C2)ccc1OCCN1CCNCC1 = 94
• CC1(C)N=C(NC(=O)Nc2ccc([N+](=O)[O-])cc2)N=C(N)N1OCc1cccc2ccccc12 = 97
• NC(=O)COc1c(C2CCN(CCN3CCC(CNC(=O)c4ccc(-c5ccc(C(F)(F)F)cc5)cc4)CC3)CC2)ccc2c1CCCC2 = 87
• COc1ccc2nccc([C@@H](O)CN3CCC(NC(=O)/C=C/c4cc([N+](=O)[O-])ccc4OC)CC3)c2c1 = 99
• COc1cccc(CNC[C@@H](O)[C@H](Cc2ccccc2)NC(=O)c2cc(OC(C)C)cc(N3CCCCS3(=O)=O)c2)c1 = 95
• Cn1cnc(CCNC(=O)c2ccc(-c3ccc(-c4nc5ccc(F)cc5[nH]4)cc3)cc2)c1 = 92
